- ASSAYED_TARGET: Inositol hexakisphosphate kinase 1 (Homo sapiens) (UniProt Q92551)
- Sequence (Q92551 whole entry, looked up): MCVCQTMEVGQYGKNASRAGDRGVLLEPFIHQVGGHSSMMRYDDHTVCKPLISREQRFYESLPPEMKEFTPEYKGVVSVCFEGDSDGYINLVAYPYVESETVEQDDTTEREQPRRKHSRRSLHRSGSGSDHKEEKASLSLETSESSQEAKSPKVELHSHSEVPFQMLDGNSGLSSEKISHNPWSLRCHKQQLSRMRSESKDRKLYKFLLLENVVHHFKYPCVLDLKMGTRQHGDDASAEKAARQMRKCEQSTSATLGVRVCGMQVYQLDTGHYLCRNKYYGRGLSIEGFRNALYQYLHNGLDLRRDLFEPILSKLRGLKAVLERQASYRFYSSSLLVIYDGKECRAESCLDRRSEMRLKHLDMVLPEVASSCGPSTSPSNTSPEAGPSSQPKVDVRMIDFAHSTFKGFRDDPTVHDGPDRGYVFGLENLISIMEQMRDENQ
- METHOD_DESCRIPTION: Primary qHTS assay for small molecule inhibitors of Inositol hexaphosphate kinase 1 (IP6K1); note: series mostly up to about 58 µM; % is set by controls: 0 for no effect and ±100 for the full control effect
- TEST_PARAMETERS: ADP-Glo luminescence, 2 h, hits give low values
- Source text: Assay Provider: Huijun Wei, M.S., Ph.D. School of Medicine, Johns Hopkins University, Baltimore, MD Inositol hexakisphosphate kinases (IP6Ks) catalyze pyrophosphorylation of inositol hexakisphosphate (IP6) into inositol 5-diphospho-1,2,3,4,6-pentakisphosphate (IP7), which is involved in numerous areas of cell physiology including glucose homeostasis, blood coagulation and neurological development. […]
Hit rate of the full screen: of about 140,000 compounds, about 1,200 (0.86%) were called active. This excerpt belongs to a sample that is enriched for actives.
Rule: activity change below -10% gives 1 (yes). Equal to or above -10% gives 0 (no).

| COMPOUND | ASSAYED_TARGET | ASSIGNED_CATEGORY |
| --- | --- | --- |
| Cc1ccc(NC(=O)c2cc(S(=O)(=O)NCCC3=CCCCC3)ccc2F)cc1C | Inositol hexakisphosphate kinase 1 (Homo sapiens) (UniProt Q92551) | 1 (yes) |
| Cc1cccc(-n2ncc(C(=O)N3CCc4ccccc4C3)c2C2CCN(C(=O)OC(C)(C)C)CC2)c1 | Inositol hexakisphosphate kinase 1 (Homo sapiens) (UniProt Q92551) | 0 (no) |
| CCc1ccc(NC(=O)c2cc(S(=O)(=O)NC3CCCCCC3)ccc2F)cc1 | Inositol hexakisphosphate kinase 1 (Homo sapiens) (UniProt Q92551) | 0 (no) |
| O=C(c1cccc(OC2CN(Cc3nccs3)C2)c1)N1CCOCC1 | Inositol hexakisphosphate kinase 1 (Homo sapiens) (UniProt Q92551) | 0 (no) |
| COc1ccc(-c2ccc3ncc(Nc4ccc(C(F)(F)F)cc4)n3n2)cn1 | Inositol hexakisphosphate kinase 1 (Homo sapiens) (UniProt Q92551) | 1 (yes) |
| COc1ccc(-c2ccc3ncc(Nc4cc(F)cc(N5CCOCC5)c4)n3n2)cn1 | Inositol hexakisphosphate kinase 1 (Homo sapiens) (UniProt Q92551) | 1 (yes) |
| CCOc1ccc(C(=O)N2CCC(c3n[nH]c(=O)n3-c3ccccc3)CC2)cc1OCC | Inositol hexakisphosphate kinase 1 (Homo sapiens) (UniProt Q92551) | 0 (no) |
| Cc1n[nH]c(C)c1CNC(=O)C1Cn2cccc2C(=O)N1Cc1ccccc1 (configuration not stated) | Inositol hexakisphosphate kinase 1 (Homo sapiens) (UniProt Q92551) | 0 (no) |
| COc1ccc(Nc2cnc3ccc(-c4ccc(OC)nc4)nn23)cc1 | Inositol hexakisphosphate kinase 1 (Homo sapiens) (UniProt Q92551) | 1 (yes) |
| O=C(Cc1cccc(F)c1)N1CCC[C@H]1c1nc(-c2ccc(F)cc2)n[nH]1 | Inositol hexakisphosphate kinase 1 (Homo sapiens) (UniProt Q92551) | 0 (no) |
| CCNC(=O)CCc1c(CC)nn(-c2ccc(F)cc2)c1Oc1ccccc1 | Inositol hexakisphosphate kinase 1 (Homo sapiens) (UniProt Q92551) | 0 (no) |
| CCc1ccccc1N1C(=O)CN(S(=O)(=O)CC)CC1(C)C(=O)NC1CCCCC1 (configuration not stated) | Inositol hexakisphosphate kinase 1 (Homo sapiens) (UniProt Q92551) | 1 (yes) |
| CC(C)(C)OC(=O)N1CCC(c2c(C(=O)N3CCc4ccccc4C3)cnn2-c2ccc(F)cc2)CC1 | Inositol hexakisphosphate kinase 1 (Homo sapiens) (UniProt Q92551) | 1 (yes) |
| CCc1ccc(N2C(=O)CN(S(=O)(=O)CC)CC2(C)C(=O)NC2CCCCC2)cc1 (configuration not stated) | Inositol hexakisphosphate kinase 1 (Homo sapiens) (UniProt Q92551) | 1 (yes) |
| CNC(=O)[C@@H]1C[C@@H](n2cc(CNC(=O)Nc3cccc(Cl)c3C)nn2)CN1 | Inositol hexakisphosphate kinase 1 (Homo sapiens) (UniProt Q92551) | 0 (no) |
| COc1ccc(C(=O)N2CCCC2C(=O)N2CCCC2c2nc3ccncc3[nH]2)cc1 (configuration not stated) | Inositol hexakisphosphate kinase 1 (Homo sapiens) (UniProt Q92551) | 0 (no) |
| COc1ccccc1NC(=O)c1cc(S(=O)(=O)NCCc2ccccc2)ccc1F | Inositol hexakisphosphate kinase 1 (Homo sapiens) (UniProt Q92551) | 0 (no) |

###

- ASSAYED_TARGET: Inositol hexakisphosphate kinase 1 (Homo sapiens)
- METHOD_DESCRIPTION: Primary qHTS assay for small molecule inhibitors of Inositol hexaphosphate kinase 1 (IP6K1); note: series mostly up to about 58 µM; % is set by controls: 0 for no effect and ±100 for the full control effect
- TEST_PARAMETERS: ADP-Glo luminescence, 2 h
Screen size: about 140,000 compounds; about 1,200 (0.86%) were called active. Rule as the data show it: active = activity change below about -25%; inactive = the rest. The sample as a whole holds a higher share of actives than the screen did.
Possible outcomes: 1.0 for active, 0.0 for inactive

| MOLECULE | ASSIGNED_CATEGORY |
| --- | --- |
| O=C(NCc1ccc(F)c(F)c1)C1CCCN(Cc2cccc(-c3cccs3)c2)C1 (stereo not given) | 0.0 |
| N#CSc1cc(SC#N)c(N)nc1N | 1.0 |
| CCOC(=O)c1cc2c(=O)n3ccccc3nc2n(CC2CCCO2)c1=NC(=O)c1ccccc1F (stereo not given) | 0.0 |
| Cc1noc(-c2ccc(OC3CN(C(=O)c4ccco4)C3)cc2)n1 | 0.0 |
| COc1ccc2[nH]c3c(c2c1)CCNC31CCN(C(=O)c2ccccc2)CC1 | 0.0 |
| CCOc1cccc2c1OC[C@@H]1CN(CCOC)C(=O)CCN(C(=O)c3ccccc3OC)[C@H]21 | 0.0 |
| C#C[C@]1(O)CC[C@H]2[C@@H]3CCC4=CC(=O)CC[C@@H]4[C@H]3CC[C@@]21CC | 0.0 |
| COc1ccccc1-c1cc(-c2cn[nH]c2)c2onc(C)c2n1 | 1.0 |
| Cc1cc(C)cc(N2CCC(NS(=O)(=O)c3cn(C)c(C)n3)C2=O)c1 (stereo not given) | 0.0 |
| COc1ccc(CNC(=O)[C@@H](C)C2CC[C@@]3(C)CC[C@H](NC(=O)c4ccc(C#N)cc4)[C@@H](C)[C@@H]3[C@H]2O)cc1 (stereo not given in full) | 0.0 |
| CCOC(=O)c1ccc(CSc2nnc3cc(C)c4ccccc4n23)cc1 | 1.0 |
| O=C(Nc1cc(-c2ccncc2)nn1-c1ccccc1)c1ccccc1F | 0.0 |
| COc1ccc(-n2nc(C3CCN(Cc4ccccn4)CC3)[nH]c2=O)cc1 | 0.0 |
| COc1ccc(Nc2ccnc(N3CCCC(C(=O)NCc4ccc(C(F)(F)F)cc4)C3)n2)cc1 (stereo not given) | 0.0 |
| Cc1ccc(-c2onc(C)c2C)cc1S(=O)(=O)Nc1ccccn1 | 1.0 |
| CCOC(=O)c1cc2c(=O)n3ccccc3nc2n(Cc2ccco2)c1=NC(=O)c1ccc(F)cc1 | 1.0 |
| COC(=O)[C@H](NC(=O)C1=C[C@@H](NC(=O)CS(=O)(=O)c2ccccc2)[C@@H](O)[C@H](O)C1)C(C)C | 0.0 |
| COc1ccc(-c2cc(C(=O)NCC(F)(F)F)c3c(C4CCCN4)nn(C)c3n2)cc1 (stereo not given) | 0.0 |
| COc1ccccc1-c1cccc(C(=O)N2CCN(C(=O)Cc3ccc(F)cc3)CC2)c1 | 0.0 |
| N#CC1CCN(C(=O)c2ccc3nnc(Cc4ccco4)n3c2)CC1 | 0.0 |
| Cc1noc2c(-c3cccc(CO)c3)cc(-c3ccccc3)nc12 | 0.0 |
| COc1ccccc1-c1ccc(CN2CCC(NC(=O)c3ccc(Cl)nc3)C2)cc1 (stereo not given) | 0.0 |
| O=c1cc(N2CCOCC2)oc2c(Nc3cccc(Cl)c3)nccc12 | 1.0 |
| C#C[C@]1(O)CC[C@H]2[C@@H]3CCC4=C/C(=N/O)CC[C@@H]4[C@H]3CC[C@@]21CC | 1.0 |
| COc1ccccc1-c1cc(-c2cccc([S+](C)(=O)[O-])c2)c2onc(C)c2n1 | 0.0 |

###

- ASSAYED_TARGET: Inositol hexakisphosphate kinase 1 (Homo sapiens)
- METHOD_DESCRIPTION: Primary qHTS assay for small molecule inhibitors of Inositol hexaphosphate kinase 1 (IP6K1); note: series mostly up to about 58 µM; % is set by controls: 0 for no effect and ±100 for the full control effect
- TEST_PARAMETERS: ADP-Glo luminescence, 2 h
The campaign covered roughly 140,000 compounds. About 1,200 (0.86%) were called active. Cut-off read from the data, not from the text of the source: active = activity change below about -25%; inactive = the rest. This is one part of a sample in which actives are shown more often than they occur.
Outcome codes: True for active, False for inactive

| MOLECULE | ASSIGNED_CATEGORY |
| --- | --- |
| CC(=O)Nc1cccc(C(=O)N2CCCN(c3cc(-c4ccc(Br)cc4)[nH]n3)CC2)c1 | False |
| O=C(c1nc(-c2cccnc2)c2cnccn12)N1CCN(c2ncccn2)CC1 | False |
| CN(C)c1ccc(CN(C)C2CCc3ccccc3C2)cc1 (configuration not stated) | False |
| COCCn1c(=O)n([C@H]2CCCN(C(=O)CCc3ccccc3)C2)c2ncccc21 | False |
| COCCO[C@H]1C(=O)N(C2CCN(C(=O)c3ccsc3)CC2)[C@H]1c1ccncc1 | False |
| CSCC(=O)N1CCC2(CC1)CC(c1ccccc1)CN(C)C2 (configuration not stated) | False |
| CCc1cccc(NC(=O)c2cnc(N3CCOCC3)c3ccccc23)c1 | False |
| O=C(NCc1ccccc1)c1c(-c2ccccc2)cc(=O)n2c1CCCC2 | False |
| Cc1ccccc1C(=O)N1CCCC(C(=O)N2CCC(N3CCOC3=O)CC2)C1 (configuration not stated) | False |
| CCOC(=O)c1scc(-c2ccccc2)c1S(=O)(=O)Nc1ccccc1F | False |
| CCOc1ccccc1CNC(=O)c1ccc(-n2c(C)cc3c2CCC(C)C3)cc1 (configuration not stated) | False |
| CCOc1ccccc1NC(=O)CN1C(=O)C(c2ccccc2)=NC12CCCC2 | False |
| CCOC(=O)c1ccc(NC(=O)c2csc3c2CCCCC3)cc1 | False |
| COc1ccccc1N1CCN(S(=O)(=O)CCNC(=O)COc2ccc(F)cc2)CC1 | True |
| O=C(OCCN1CCOCC1)c1cccnc1Nc1cccc(C(F)(F)F)c1 | True |
| CCN1c2cc(C(=O)NCc3ccccc3C(F)(F)F)ccc2C(=O)N2CCCCCC21 (configuration not stated) | False |
| CC(=O)c1cc(CC(=O)NCc2cc(F)c(F)cc2F)cs1 | False |
| O=C1CCN(C(=O)[C@H](Cc2ccccc2)NC(=O)NC2CCCCC2)CCCOCCN1 | False |
| CC(C)(C)c1ccc(C(=O)Nc2cc(Cl)c(Br)cc2C(=O)O)cc1 | True |
| CN(C)C(=O)c1ccc2oc(-c3ccnc(Cl)c3)nc2c1 | True |
| Cc1cc(Cl)ccc1OCC(=O)N1CCc2n[nH]c(=O)n2CC1 | False |
| COC(=O)NC1CCCN(c2ccc3nnc(-c4ccccc4)n3n2)C1 (configuration not stated) | False |
| Cc1ccc(NC(=O)c2nc(S(=O)(=O)Cc3cccc(C)c3)ncc2Cl)cc1 | False |
| COC(=O)c1ccc(CO[C@H]2CCC=C3C[C@@H](O)CC[C@@]32C)cc1 | False |
| CN(c1ccccc1)c1cc(=O)c2ccnc(Nc3cccc([S+](C)(=O)[O-])c3)c2o1 | False |
| Cc1cccc(C(=O)N2CCC3(CC2)CC(c2ccccc2)CN(C)C3)n1 (configuration not stated) | True |
| CC1=C(C(=O)Nc2ccccc2Cl)C(c2cccs2)n2ncnc2N1 (configuration not stated) | True |
